Target Of Assay: Serine/threonine-protein kinase mTOR (Homo sapiens) (UniProt P42345)
Test Context: at 10 µM
This listing pairs compounds with measured residual activity.
Give just the numeric value; % need not be written.

N#Cc1cnc2cnc(NCc3cccnc3)cc2c1Nc1ccc(F)c(Cl)c1; 96
CO[C@H]1C[C@@H]2CC[C@@H](C)[C@@](O)(O2)C(=O)C(=O)N2CCCC[C@H]2C(=O)O[C@H]([C@H](C)C[C@@H]2CC[C@@H](O)[C@H](OC)C2)CC(=O)[C@H](C)/C=C(\C)[C@@H](O)[C@@H](OC)C(=O)[C@H](C)C[C@H](C)/C=C/C=C/C=C/1C; 4

Asked: Would you mind telling me what residual activity value was observed for O=C(Nc1cccc(Nc2cc(Nc3cccc(C(F)(F)F)c3)ncn2)c1)C1CC1 ?
Given back: 102

Asked: Value lookup for residual activity; key = O=C(Nc1cccc(Nc2nccc(Nc3cccc(C(F)(F)F)c3)n2)c1)C1CC1
Given back: 84

The values you see were collected from ChEMBL document CHEMBL2218924.
